# Test Context: 293.15 K; 101.33 kPa; Liquid; Vibrating tube method
Metric Name: mass density (kg/m3)
Write the number in kg/m3 without appending the unit.

Use the examples below as a reference point.
{"Compound": "CCCCCCCCCC(=O)OCC [ethyl decanoate]", "Recorded Number": 864.3}
{"Compound": "CCCCCCCC(=O)OC [methyl octanoate]", "Recorded Number": 877.1}

Then this compound:
Determine its reported mass density: CCCCCCCCCCCC(=O)OC [methyl dodecanoate]
869.8

---

# Test Context: 298.15 K; 101.33 kPa; Liquid; Vibrating tube method
Metric Name: mass density (kg/m3)
Write the number in kg/m3 without appending the unit.

Use the examples below as a reference point.
{"Compound": "CCCCCCCCCCCC(=O)OC [methyl dodecanoate]", "Recorded Number": 865.8}
{"Compound": "CCCCC/C=C\\C/C=C\\CCCCCCCC(=O)OC [methyl (Z,Z)-9,12-octadecadienate]", "Recorded Number": 882.5}

Determine its reported mass density: CCCCCCCC/C=C\CCCCCCCC(=O)OCC [ethyl (Z)-9-octadeceneoate]
865.9

Determine its reported mass density: CCCCCCCCCCCCCC(=O)OC [methyl tetradecanoate]
863.7

Determine its reported mass density: CCCCCCCCCC(=O)OCC [ethyl decanoate]
860.2

Determine its reported mass density: CCCCCCCCCC(=O)OC [methyl decanoate]
868.2

Determine its reported mass density: CCCCCCCC/C=C\CCCCCCCC(=O)OC [methyl cis-9-octadecenoate]
870.4

Determine its reported mass density: CCCCCCCCCCCC(=O)OCC [ethyl dodecanoate]
858.5

Determine its reported mass density: CCCCCCCCCCCCCC(=O)OCC [ethyl tetradecanoate]
857.2

Determine its reported mass density: CCCCCCCC(=O)OC [methyl octanoate]
872.8
